The reader will find reported IC50 values listed item by item below.
Measurement Target: Wee1 kinase domain (Homo sapiens)
Construct: Wee1 kinase domain was purchased from Carna (catalog #05-177); purchased Carna 05-177
Sequence (P30291 299-569 limits assumed): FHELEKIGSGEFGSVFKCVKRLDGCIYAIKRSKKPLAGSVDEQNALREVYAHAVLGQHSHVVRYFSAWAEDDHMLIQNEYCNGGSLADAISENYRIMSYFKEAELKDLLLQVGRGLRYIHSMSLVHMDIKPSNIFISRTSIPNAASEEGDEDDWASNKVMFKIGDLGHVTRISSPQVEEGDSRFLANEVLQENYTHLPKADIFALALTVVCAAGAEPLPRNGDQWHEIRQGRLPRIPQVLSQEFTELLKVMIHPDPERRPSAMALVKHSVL
Assay Name: Wee1 Kinase Biochemical Assay (ADP-Glo)
Recorded Conditions: class symbols; 1 nM Wee1 enzyme, 15 uM ATP, 4 hours at 25° C.
Experimental: Wee1 Kinase Biochemical Assay Protocol Wee1 kinase domain was purchased from Carna (catalog #05-177). Wee1 kinase activity was determined with Poly(Lys,Tyr 4:1) hydrobromide as a substrate (Sigma-Aldrich) and by measuring ADP production using the ADP-Glo Kinase Assay kit (Promega) following the manufacturer's instructions. […] The ADP-Glo signal was measured using the Envision plate reader and the percentage inhibition of kinase activity calculated for each inhibitor tested. […]

Molecule	IC50
CN1C[C@@H]2C[C@H]1CN2c1ccc(Nc2ncc3c(n2)N(c2cccc(C4(O)CC4)n2)[C@H]2CC(C)(C)OC[C@@]32C)cc1	100 to 1000 nM
CN1CCN(c2ccc(Nc3ncc4c(n3)N(c3ccn(C(F)F)n3)[C@@H]3CC(C)(C)OC[C@]43C)cc2)CC1 (single isomer, unassigned)	< 10 nM
CN1C[C@@H]2CN(c3ccc(Nc4ncc5c(n4)N(c4cccc(N6CCOC6=O)n4)[C@@H]4CC(C)(C)OC[C@]54C)cc3)C[C@@H]2C1	< 10 nM
CC1(C)C[C@H]2N(c3cccc(N=S(C)(C)=O)n3)c3nc(Nc4ccc(N5CCN6CCC[C@@H]6C5)cc4)ncc3[C@@]2(C)CO1 (single isomer, unassigned)	< 10 nM
CN[C@H](C)c1cc(C)nc(N2c3nc(Nc4ccc(N5CCOCC5)cc4)ncc3[C@]3(C)COC(C)(C)C[C@H]23)c1 (single isomer, unassigned)	100 to 1000 nM
CC1(C)C[C@H]2N(c3cccc([C@H]4CCNC4)n3)c3nc(Nc4ccc(N5CCOCC5)cc4)ncc3[C@@]2(C)CO1 (single isomer, unassigned)	< 10 nM
Cc1ccc(Nc2ncc3c(n2)N(c2cccc(N=S(C)(C)=O)n2)[C@@H]2CC(C)(C)OC[C@]32C)cn1 (single isomer, unassigned)	< 10 nM
CC1(C)C[C@H]2N(c3cccc(P(C)(C)=O)n3)c3nc(Nc4ccn([C@@H]5CCOC5)c(=O)c4)ncc3[C@@]2(C)CO1	< 10 nM
CN1C[C@@H]2CN(c3ccc(Nc4ncc5c(n4)N(c4cccc(C(C)(C)O)n4)[C@H]4CC(C)(C)OC[C@@]54C)cc3)C[C@@H]2C1 (single isomer, unassigned)	100 to 1000 nM
CN[C@@]1(C)CCc2ccc(N3c4nc(Nc5ccc(N6CCOCC6)cc5)ncc4[C@@]4(C)COC(C)(C)C[C@@H]34)nc21 (single isomer, unassigned)	< 10 nM
CN1CCN(c2ccc(Nc3ncc4c(n3)N(c3cccc(C(F)F)n3)[C@@H]3CC(C)(C)OC[C@]43C)cc2)CC1 (single isomer, unassigned)	< 10 nM
CN1CC2(C1)CN(c1ccc(Nc3ncc4c(n3)N(c3cccc(N5CCCC5=O)n3)[C@H]3CC(C)(C)OC[C@@]43C)cc1)C2	100 to 1000 nM
CNCc1cccc(N2c3nc(Nc4ccc(=O)n(C)c4)ncc3[C@]3(C)COC(C)(C)C[C@H]23)n1 (single isomer, unassigned)	≥ 1000 nM
CN[C@@H](C)c1cccc(N2c3nc(Nc4ccc(N5CCOCC5)cc4)ncc3[C@]3(C)COC(C)(C)C[C@H]23)n1 (single isomer, unassigned)	10 to 100 nM
CN[C@H](c1cccc(N2c3nc(Nc4ccc(N5CCN(C)CC5)cc4)ncc3[C@@]3(C)COC(C)(C)C[C@@H]23)n1)C(F)(F)F	< 10 nM
CN1C[C@@H]2C[C@H]1CN2c1ccc(Nc2ncc3c(n2)N(c2cccc(N4CCCC4=O)n2)[C@@H]2CC(C)(C)OC[C@]32C)cc1F	< 10 nM
CN=[S@@](C)(=O)c1cccc(N2c3nc(Nc4ccc(N5CCN(C)CC5)cc4)ncc3[C@@]3(C)COC(C)(C)C[C@@H]23)n1 (single isomer, unassigned)	< 10 nM
CN1CCC(c2ccc(Nc3ncc4c(n3)N(c3cccc(N5CCOC5=O)n3)[C@H]3CC(C)(C)OC[C@@]43C)cc2)CC1 (single isomer, unassigned)	10 to 100 nM
CN1CCN(c2ccc(Nc3ncc4c(n3)N(c3cccc(N5CCOC5=O)n3)[C@@H]3CC(C)(C)OC[C@]43C)cc2)CC1 (single isomer, unassigned)	< 10 nM
CC1(C)C[C@H]2N(c3cccc(C(C)(C)O)n3)c3nc(Nc4ccc(O[C@@H]5CCNC5)cc4)ncc3[C@@]2(C)CO1 (single isomer, unassigned)	10 to 100 nM
CNCc1cccc(N2c3nc(NC(=O)[C@@H]4C[C@H]4c4cnn(C)c4)ncc3[C@@]3(C)COC(C)(C)C[C@@H]23)n1	< 10 nM
CC1(C)C[C@H]2N(c3ccc4c(n3)CCNC4)c3nc(Nc4ccc(N5CCOCC5)cc4)ncc3[C@@]2(C)CO1 (single isomer, unassigned)	< 10 nM
